The reader will find reported remaining [B] values listed item by item below.
- method: Colorimetric alkylation rate constant assay with TNB^2− as non-specific thiol
- Format: physicochemical
- stated.conditions: Replicate 2, 1806 sec, [B]0=250; in µM
Form rule: numeric answer, no unit written next to it.

// known answers, use as guide
compound	remaining [B]
C=CS(=O)(=O)Nc1cc2cc(C(=O)CCC(=O)O)sc2cc1OC [Compound E1]	245.073
O=C(CCl)Nc1ccccc1 [Compound C2]	243.107
O=C(CCl)Nc1ccccc1C(=O)O [Compound C5]	244.991
O=C(CCl)Nc1ccc(F)cc1 [Compound C3]	242.666
COc1cc2sc(C(=O)CCC(=O)O)cc2cc1NC(=O)CCl [Compound E2]	241.639

Proceed to the following item.
The compound listed as O=C(CCl)N1CCOCC1 [Compound C4] shows remaining [B] equal to 237.355
